measured.endpoint: melting point

# compound, measured.endpoint, meas.value
measured = [
    ("O=c1[nH]ccc(-c2ccc3c(c2)COC2(CCN(C4CCC4)CC2)O3)c1Cl", "melting point", "230 to 232 °C"),
    ("CNC(=O)c1ccc(-c2ccc3c(n2)COC2(CCN(C4CCC4)CC2)O3)cc1F", "melting point", "172 to 173 °C"),
    ("c1cc2c(cc1C1CCOCC1)COC1(CCN(C3CCC3)CC1)O2", "melting point", "249 to 251 °C"),
    ("O=C(Nc1ccc2c(c1)COC1(CCN(C3CCC3)CC1)O2)c1ccc2[nH]ncc2c1", "melting point", "249 to 250 °C"),
    ("OCc1ccc(-c2ccc3c(c2)COC2(CCN(C4CCC4)CC2)O3)s1", "melting point", "168 to 169 °C"),
    ("COC(c1ccc2c(c1)COC1(CCN(C3CCC3)CC1)O2)C1CCS(=O)(=O)CC1 (stereo not shown)", "melting point", "178 to 180 °C"),
    ("O=C(Nc1ccc2c(c1)COC1(CCN(C3CCC3)CC1)O2)c1cc[nH]c(=O)c1", "melting point", "260 to 262 °C"),
    ("CC(C)n1cc(Cl)c(-c2ccc3c(c2)COC2(CCN(C4CCC4)CC2)O3)cc1=O", "melting point", "179 to 181 °C"),
    ("Cc1cn(-c2ccc3c(c2)COC2(CCN(C4CCC4)CC2)O3)cc1CO", "melting point", "133 to 135 °C"),
    ("CNC(=O)c1cc(-c2ccc3c(c2)CCC2(CCN(C4CCC4)CC2)O3)ccc1Cl", "melting point", "89 to 91 °C"),
    ("O=S1(=O)CCN(c2ccc3c(c2)CCC2(CCN(C4CCC4)CC2)O3)CC1", "melting point", "> 285 °C (dec.)"),
    ("COCCNC(=O)c1ccc(-c2ccc3c(c2)CCC2(CCN(C4CCC4)C2)O3)cc1F (stereo not shown)", "melting point", "58 to 60 °C"),
    ("N#Cc1ccc(Oc2ccc3c(c2)CCC2(CCN(C4CCC4)CC2)O3)cc1", "melting point", "237 to 239 °C"),
    ("O=c1cc(-c2ccc3c(c2)COC2(CCN(C4CCC4)CC2)O3)cc[nH]1", "melting point", "211 to 213 °C"),
    ("O=C(Nc1ccc2c(c1)COC1(CCN(C3CCC3)CC1)O2)c1ccc2[nH]cnc2c1", "melting point", "235 to 237 °C"),
    ("COc1ccc(-c2ccc3c(c2)COC2(CCN(C4CC(CO)C4)CC2)O3)cn1 (stereo not shown)", "melting point", "123 to 125 °C"),
    ("c1cc(-c2ccc3c(c2)COC2(CCN(C4CCC4)CC2)O3)[nH]n1", "melting point", "140 to 141 °C"),
    ("CC(=O)N(Cc1cccnc1)c1ccc2c(c1)COC1(CCN(C3CCC3)CC1)O2", "melting point", "57 to 59 °C"),
    ("O=C1CCC(c2ccc3c(c2)COC2(CCN(C4CCC4)CC2)O3)CN1 (stereo not shown)", "melting point", "233 to 235 °C"),
    ("COCc1cc(=O)[nH]cc1-c1ccc2c(c1)COC1(CCN(C3CCC3)CC1)O2", "melting point", "217 to 219 °C"),
    ("Cc1c(-c2ccc3c(c2)COC2(CCN(C4CCC4)CC2)O3)ccc(=O)n1C(F)F", "melting point", "143 to 145 °C"),
    ("CNc1cc(C(=O)Nc2ccc3c(c2)COC2(CCN(C4CCC4)CC2)O3)ccn1", "melting point", "207 to 208 °C"),
    ("O=C(NCCO)c1ccc(-c2ccc3c(c2)CCC2(CCN(C4CCC4)CC2)O3)cc1", "melting point", "145 to 147 °C"),
    ("O=c1cc(COc2ccc3c(c2)CCC2(CCN(C4CCC4)CC2)O3)cc[nH]1", "melting point", "205 to 206 °C"),
    ("O=C1CCCN1c1ccc2c(c1)COC1(CCN(C3CCC3)CC1)O2", "melting point", "187 to 188 °C"),
]

Origin of values: patent US8513232B2
